- methodSummary: Plasma pharmacokinetics, Arm II (oral BID), phase 1 trial
- Format: in vivo, human
- assaySetup: human, plasma, po, 40 mg, Arm II PO BID 40 mg, day 1, N=3; read-out: Cmax
assayReadout: Cmax
# output: number + unit

Input: Need Cmax of Nc1ncc(-c2cnn(CCO)c2)c2scc(-c3ccc(NC(=O)Nc4cccc(F)c4)cc3)c12 [ilorasertib, Ilorasertib] , thanks.
Output: 250 ng/mL

---

- methodSummary: Plasma pharmacokinetics, Arm III (i.v. infusion), phase 1 trial
- Assay type: in vivo, human
- assaySetup: human, plasma, iv, 8 mg, Arm III i.v. infusion 8 mg, day 15, N=3
assayReadout: AUC(0-inf) (ng·h/mL)
Give the quantity in ng·h/mL, number only.

Input: Need AUC(0-inf) of Nc1ncc(-c2cnn(CCO)c2)c2scc(-c3ccc(NC(=O)Nc4cccc(F)c4)cc3)c12 , thanks.
Output: 2880

---

- methodSummary: Plasma pharmacokinetics, Arm II (oral BID), phase 1 trial
- Type: in vivo, human
- assaySetup: human, plasma, po, 90 mg, Arm II PO BID 90 mg, day 1, N=3
assayReadout: AUC(0-t) (ng·h/mL)
Give the quantity in ng·h/mL, number only.

Input: Need AUC(0-t) of Nc1ncc(-c2cnn(CCO)c2)c2scc(-c3ccc(NC(=O)Nc4cccc(F)c4)cc3)c12 , thanks.
Output: 3920

---

- methodSummary: Plasma pharmacokinetics, Arm III (i.v. infusion), phase 1 trial
- Format: in vivo, human
- assaySetup: human, plasma, iv, 32 mg, Arm III i.v. infusion 32 mg, day 1, N=2, mean (individual)
assayReadout: clearance (mL/min)
Give the quantity in mL/min, number only.

Input: Need clearance of Nc1ncc(-c2cnn(CCO)c2)c2scc(-c3ccc(NC(=O)Nc4cccc(F)c4)cc3)c12 , thanks.
Output: 75.2

---

- methodSummary: Plasma pharmacokinetics, Arm II (oral BID), phase 1 trial
- Type: in vivo, human
- assaySetup: human, plasma, po, Arm II PO BID all doses, day 15, N=22; read-out: Tmax
assayReadout: Tmax (h)
Give the quantity in h, number only.

Input: Need Tmax of Nc1ncc(-c2cnn(CCO)c2)c2scc(-c3ccc(NC(=O)Nc4cccc(F)c4)cc3)c12 [ilorasertib, Ilorasertib] , thanks.
Output: 9.7

Taken from paper PMC5931107.
